# Tested on: HOP-92 NSCLC
# testProtocol: NCI tumour cell line growth inhibition, 384-well format; in the data active = GI50 below about 0.43 µM; inactive = the rest
Outcome codes: Y for active, N for inactive

INSERT INTO results (compound, assignedcategory) VALUES
  ('CC[C@H](NC(=O)[C@H](CS(=O)(=O)CC1CC1)N[C@@H](c1ccc(F)cc1)C(F)(F)F)C(=O)C(=O)NC1CC1', 'N'),
  ('CC(=O)C1(O)Cc2c(O)c3c(c(O)c2C(OC2CC(N)C(O)C(C)O2)C1)C(=O)c1ccccc1C3=O (centres undefined)', 'Y'),
  ('O=C(O)C(=O)CBr', 'N'),
  ('Cn1ncc(-c2ccc3c(=O)[nH]nc(CN)c3c2)c1-c1c(F)cc2ccccc2c1C#N', 'N');

The reported measurements were obtained from PubChem BioAssay (NCI).
